target: Protein kinase C (PKC); experiment: Inhibitory activity against protein kinase C (PKC); type: protein assay, Homo sapiens
property-measured: IC50 (µM)
Number only, in µM; omit the unit.

For reference, reported IC50 for CC1(C)CC[C@]2(C(=O)O)CC[C@]3(C)C(=CCC4[C@@]5(C)C[C@@H](O)[C@@H]6OC(=O)c7cc(O)c(O)c(O)c7-c7c(cc(O)c(O)c7O)C(=O)OC[C@@]6(CO)C5CC[C@]43C)C2C1 (some centres undefined) stands at 23

For reference, reported IC50 for "O=C(OC[C@@H]1O[C@@H](OC(=O)c2cc(O)c(O)c(O)c2)[C@@H](OC(=O)c2cc(O)c(O)c(O)c2)[C@@H](OC(=O)c2cc(O)c(O)c(O)c2)[C@@H]1OC(=O)c1cc(O)c(O)c(O)c1Oc1cc2c(c(O)c1O)-c1c(cc(O)c(O)c1O)C(=O)OC[C@@H]1O[C@@H](OC(=O)c3cc(O)c(O)c(O)c3)[C@@H](OC(=O)c3cc(O)c(O)c(O)c3)[C@@H](OC(=O)c3cc(O)c(O)c(O)c3)[C@@H]1OC2=O)c1cc(O)c(O)c(O)c1" stands at 3

For reference, reported IC50 for O=C1O[C@H]2[C@@H]3OC(=O)c4cc(O)c(O)c(O)c4-c4c(cc(O)c(O)c4O)C(=O)OC[C@H]2O[C@H](OC(=O)c2cc(O)c(O)c(O)c2)[C@@H]3OC(=O)c2cc(O)c(O)c3c2C2C1=CC(=O)C(O)(O)C2(O)O3 (some centres undefined) stands at 11

For reference, reported IC50 for O=C1OCC2OC(=O)c3cc(O)c(O)c(O)c3-c3c(O)c(O)c(O)c4c3C(=O)OC(C2OC(=O)c2cc(O)c(O)c(O)c2-c2c1cc(O)c(O)c2O)C1OC(=O)c2c-4c(O)c(O)c(O)c2[C@@H]1c1c(O)cc(O)c2c1O[C@H](c1ccc(O)c(O)c1)[C@@H](O)C2 (some centres undefined) stands at 7

For reference, reported IC50 for O=C1O[C@H]2[C@@H]3OC(=O)c4cc(O)c(O)c(O)c4-c4c(cc(Oc5c(C(=O)O)cc(O)c(O)c5O)c(O)c4O)C(=O)OC[C@H]2O[C@@H](OC(=O)c2cc(O)c(O)c(O)c2)[C@@H]3OC(=O)c2cc(O)c(O)c3c2C2C1=CC(=O)C(O)(O)C2(O)O3 (some centres undefined) stands at 16

Source: ChEMBL document CHEMBL1149998
